Ref: ChEMBL document CHEMBL3351819

- run description: Selectivity index, ratio of IC50 for HMEC1 to IC50 for Leishmania infantum MHOM/TN/80/IPT1
Binned Ratio IC50; ranges: A: < 3; B: ≥ 3 and < 4; C: ≥ 4

Exercise: read the entry COc1ccc(Nc2cc3nc4ccccc4n(-c4ccccc4)c-3c/c2=N/CCCCC23CCCCN2CCCC3)cn1.Cl and state which class it falls under.
A

Exercise: read the entry Cl.c1ccc(Nc2cc3nc4ccccc4n(-c4ccccc4)c-3c/c2=N/CCCCC23CCCCN2CCCC3)cc1 and state which class it falls under.
B

Exercise: read the entry Cl.c1ccc(Nc2cc3nc4ccccc4n(-c4ccccc4)c-3c/c2=N/CCC23CCCN2CCC3)cc1 and state which class it falls under.
A

Exercise: read the entry CC(C)/N=c1\cc2n(-c3ccc(Cl)cc3)c3ccccc3nc-2cc1Nc1ccc(Cl)cc1 and state which class it falls under.
C

Exercise: read the entry Cl.Clc1ccc(-n2c3c/c(=N/CCCCC45CCCCN4CCCC5)c(Nc4cccnc4)cc-3nc3ccccc32)cc1 and state which class it falls under.
C

Exercise: read the entry CN(C)CCC/N=c1/cc2n(-c3ccc(Cl)cc3)c3ccccc3nc-2cc1Nc1cccnc1 and state which class it falls under.
C

Exercise: read the entry Cc1ccc(Nc2cc3nc4ccccc4n(-c4ccc(C)cc4)c-3c/c2=N/C[C@@H]2CCCN3CCCC[C@H]23)cc1.Cl and state which class it falls under.
B

Exercise: read the entry Cl.Fc1ccc(Nc2cc3nc4ccccc4n(-c4ccc(F)cc4)c-3c/c2=N/CCCCCCC23CCCCN2CCCC3)cc1 and state which class it falls under.
C

Exercise: read the entry Cl.Clc1ccc(Nc2cc3nc4ccccc4n(-c4ccc(Cl)cc4)c-3c/c2=N/CCC23CCCN2CCC3)cc1 and state which class it falls under.
B

Exercise: read the entry Cl.c1ccc(-n2c3c/c(=N/CCCCC45CCCCN4CCCC5)c(Nc4cccnc4)cc-3nc3ccccc32)cc1 and state which class it falls under.
A
